Observed pIC50 values for PI3Kγ (Homo sapiens, UniProt P48736) are listed in what follows.
pIC50: −log10 of the molar value.
observationType: pIC50

| compound | modifierSign | endpointResult |
| --- | --- | --- |
| Cn1cc(/C=C2\Oc3ccc(C(=O)O)cc3C2=O)c2c(-c3ccccc3)ccnc21 [Compound 176] | < | 5.00 |
| CC(C)NC(=O)Nc1ccc2c(c1)C(=O)/C(=C/c1cn(C)c3nccc(N4CC5CCC(C4)O5)c13)O2 [Compound 235] | = | 5.59 |
| CNC(=O)Nc1ccc(-c2ccnc3c2c(/C=C2\Oc4cccc(O)c4C2=O)cn3C)cc1 [Compound 133] | = | 7.52 |
| Cn1c(-c2ccccc2)c(/C=C2\Oc3cc(O)ccc3C2=O)c2cccnc21 [Compound 28] | = | 5.29 |
| Cn1cc(/C=C2\Oc3cc(O)cc(O)c3C2=O)c2c(N3CCC(O)CC3)ccnc21 [Compound 50] | = | 6.75 |
| CN(C)C(=O)c1ccc(-c2ccnc3c2c(/C=C2\Oc4cccc(O)c4C2=O)cn3C)cc1 [Compound 111] | = | 7.18 |
| COc1ccc(-c2ccnc3c2c(/C=C2\Oc4cccc(O)c4C2=O)cn3C)cc1S(=O)(=O)N1CCCCC1 [Compound 123] | = | 6.81 |
| CNC(=O)Nc1ccc2c(c1)C(=O)/C(=C/c1cn(C)c3nccc(N4CCC(C(=O)N5CCOCC5)CC4)c13)O2 [Compound 174] | = | 6.47 |

---

Molecular target: mTOR (Homo sapiens, UniProt P42345)
Experiment: mTOR enzyme assay (DELFIA format, His6-S6K substrate)
Type: biochemical
Conditions: read-out: mTOR Kinase Median IC50

| compound | unitInfo | IC50 |
| --- | --- | --- |
| C[C@@H]1CN(C2CCN(c3ccnc4c3c(/C=C3\Oc5ccc(NC(=O)Nc6cccnc6)cc5C3=O)cn4C)CC2)C[C@H](C)O1 [Compound 239] | nM | 64 |
| CCNC(=O)Nc1ccc2c(c1)C(=O)/C(=C/c1cn(C)c3nccc(N4CC5CCC(C4)O5)c13)O2 [Compound 61] | nM | 57 |
| Cn1cc(/C=C2\Oc3ccc(NC(=O)Nc4ccc(Cl)nc4)cc3C2=O)c2c(N3CC4CCC(C3)O4)ccnc21 [Compound 299] | nM | 69 |
| CCn1cc(/C=C2\Oc3ccc(NC(=O)Nc4cccnc4)cc3C2=O)c2c(-c3ccc(C(=O)N4CCN(CCO)CC4)cc3)ccnc21 [Compound 177] | nM | 66 |
| COCCC1CN(C(=O)c2ccc(-c3ccnc4c3c(/C=C3\Oc5cccc(O)c5C3=O)cn4C)cc2)CCO1 (stereo not shown) [Compound 305] | nM | 1 |
| O=C1C(=Cc2c[nH]c3ncccc23)Oc2cc(O)cc(O)c21 [Compound 11] | nM | 1200 |
| CN(C)C(=O)Nc1ccc2c(c1)C(=O)/C(=C/c1cn(C)c3nccc(-c4ccccc4)c13)O2 [Compound 161] | nM | 397 |

---

Observed pIC50 values for PI3Kγ (Homo sapiens) are listed in what follows.
pIC50: −log10 of the molar value.
observationType: pIC50

| compound | modifierSign | endpointResult |
| --- | --- | --- |
| Cn1cc(/C=C2\Oc3cccc(O)c3C2=O)c2c(-c3ccc(N4CCCC4)cc3)ccnc21 [Compound 143] | < | 5.00 |
| Cn1cc(/C=C2\Oc3cccc(O)c3C2=O)c2c(-c3ccc(S(=O)(=O)NCc4ccccc4)cc3)ccnc21 [Compound 90] | = | 7.80 |
| CN(C)Cc1ccc(-c2ccnc3c2c(/C=C2\Oc4cccc(O)c4C2=O)cn3C)cc1 [Compound 113] | = | 6.20 |
| CN(C(=O)C1CCN(c2ccnc3c2c(C=C2Oc4ccc(NC(=O)Nc5cccnc5)cc4C2=O)cn3C)CC1)[C@@H]1CCNC1 [Compound 206] | < | 5.00 |
| Cn1cc(/C=C2\Oc3cccc(O)c3C2=O)c2c(-c3ccc(F)c(C(=O)Nc4ccccc4)c3)ccnc21 [Compound 137] | = | 6.59 |
| Cn1cc(/C=C2\Oc3cccc(O)c3C2=O)c2c(-c3ccc(S(=O)(=O)N4CCOCC4)cc3)ccnc21 [Compound 191] | = | 7.00 |
| CN(C)C(=O)C1CCN(c2ccnc3c2c(/C=C2\Oc4ccc(NC(=O)Nc5cccnc5)cc4C2=O)cn3C)CC1 [Compound 189] | = | 5.69 |
| COCCN(C)C(=O)c1ccc(-c2ccnc3c2c(/C=C2\Oc4ccc(NC(=O)Nc5cccnc5)cc4C2=O)cn3C)cc1 [Compound 247] | = | 6.32 |
| CC(=O)c1ccc(-c2ccnc3c2c(/C=C2\Oc4cccc(O)c4C2=O)cn3C)cc1 [Compound 134] | = | 7.05 |
| Cn1cc(/C=C2\Oc3cccc(O)c3C2=O)c2c(-c3ccc(N4CCCCC4)cc3)ccnc21 [Compound 142] | < | 5.00 |
| COCCNC(=O)C1CCN(c2ccnc3c2c(/C=C2\Oc4ccc(NC(=O)Nc5cccnc5)cc4C2=O)cn3C)CC1 [Compound 260] | = | 5.72 |
| Cn1cc(/C=C2\Oc3cccc(O)c3C2=O)c2c(-c3ccc(N4CC5CCC(C4)O5)cc3)ccnc21 [Compound 157] | = | 7.11 |
| COc1ccc2[nH]cc(/C=C3\Oc4cc(O)cc(O)c4C3=O)c2n1 [Compound 26] | = | 5.80 |
| Cn1cc(/C=C2\Oc3cccc(O)c3C2=O)c2c(-c3ccc(C(=O)N4CC5CCC(C4)O5)cc3)ccnc21 [Compound 144] | = | 7.11 |
| Cn1cc(/C=C2\Oc3cc(O)cc(O)c3C2=O)c2c(-c3cccc(S(=O)(=O)N4CCCCC4)c3)ccnc21 [Compound 80] | = | 7.16 |
